These entries and their values trace back to the supplement of paper PMC10065799.

Target: MERTK (UniProt Q12866)
Sequence (Q12866 whole entry, looked up): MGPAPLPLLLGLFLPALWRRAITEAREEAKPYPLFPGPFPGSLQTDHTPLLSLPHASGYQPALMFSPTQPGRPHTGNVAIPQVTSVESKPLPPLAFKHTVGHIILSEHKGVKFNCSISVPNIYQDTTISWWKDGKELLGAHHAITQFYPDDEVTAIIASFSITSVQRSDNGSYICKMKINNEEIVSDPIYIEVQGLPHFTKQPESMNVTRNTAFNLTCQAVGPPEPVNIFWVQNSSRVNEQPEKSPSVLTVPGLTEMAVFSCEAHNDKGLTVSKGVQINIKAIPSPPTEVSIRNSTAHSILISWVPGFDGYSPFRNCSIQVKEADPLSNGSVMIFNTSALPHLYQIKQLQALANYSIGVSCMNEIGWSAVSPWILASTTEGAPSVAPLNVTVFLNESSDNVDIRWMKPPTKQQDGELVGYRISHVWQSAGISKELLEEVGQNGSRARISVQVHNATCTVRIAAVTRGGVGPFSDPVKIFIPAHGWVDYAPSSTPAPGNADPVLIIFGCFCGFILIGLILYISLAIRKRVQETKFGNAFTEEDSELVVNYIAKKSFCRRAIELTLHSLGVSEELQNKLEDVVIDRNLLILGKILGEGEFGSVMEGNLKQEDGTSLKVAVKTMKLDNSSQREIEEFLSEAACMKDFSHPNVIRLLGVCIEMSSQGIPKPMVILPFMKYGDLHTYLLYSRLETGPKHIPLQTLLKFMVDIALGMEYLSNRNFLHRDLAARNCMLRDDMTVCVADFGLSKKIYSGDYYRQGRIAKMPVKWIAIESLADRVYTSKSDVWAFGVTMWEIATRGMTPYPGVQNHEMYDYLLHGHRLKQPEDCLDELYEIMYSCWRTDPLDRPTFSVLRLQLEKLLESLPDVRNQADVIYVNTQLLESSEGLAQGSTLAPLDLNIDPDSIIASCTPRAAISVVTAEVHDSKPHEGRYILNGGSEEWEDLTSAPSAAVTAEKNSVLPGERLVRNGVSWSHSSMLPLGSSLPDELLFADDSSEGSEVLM
Test: phosphorylation enrichment, bacterial display (enrichment ratio); higher = better substrate or ligand; peptides without Tyr show the background;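 note: 11-residue human phosphosite peptides and single-mutation variants displayed on the E. coli surface, counted by deep sequencing, each peptide's frequency after selection divided by its frequency in the unselected input library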;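 note: frequency after pTyr selection over input frequency; kinase dosed for 20-30% of maximal phosphorylation in three min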
Please use YES whenever phosphorylation enrichment is not below 0.5, and NO whenever it is.

Is reported phosphorylation enrichment greater than or equal to 0.5 here: TLNHQYDFTFH [CSNK1A1_Y292_D297H_YF] YES

Is reported phosphorylation enrichment greater than or equal to 0.5 here: RSRQIYDAYIM [GRK3_Y109] YES

Is reported phosphorylation enrichment greater than or equal to 0.5 here: TTEHIYGDKFF [UBA7_Y524_N527K] NO

Is reported phosphorylation enrichment greater than or equal to 0.5 here: YISLIYTNYEV [GSTP1_Y109_A114V] YES

Is reported phosphorylation enrichment greater than or equal to 0.5 here: RRERPYGGGGG [FUS_Y526] NO

Is reported phosphorylation enrichment greater than or equal to 0.5 here: VEDQFYRVDCF [FHL1_Y208_C209R_YF] YES

Is reported phosphorylation enrichment greater than or equal to 0.5 here: MMVGAYSSLEG [ECPAS_Y470_T472S] YES

Is reported phosphorylation enrichment greater than or equal to 0.5 here: MICSAYALGGL [CPS1_Y590_R587C] YES

Is reported phosphorylation enrichment greater than or equal to 0.5 here: PELINYHQHNF [BTK_Y361_S366F] YES

Is reported phosphorylation enrichment greater than or equal to 0.5 here: GVLKEYVVKVL [CPS1_Y529_G530V] NO

Is reported phosphorylation enrichment greater than or equal to 0.5 here: LTDLRYKVSGL NO

Is reported phosphorylation enrichment greater than or equal to 0.5 here: SEQNNYSRVAN [CWC22_Y797_R794Q] NO

Is reported phosphorylation enrichment greater than or equal to 0.5 here: KRAAIYNPVIF [RHO_Y301_S297R_YF] YES

Is reported phosphorylation enrichment greater than or equal to 0.5 here: HAVVDYMRRQK [ATM_Y1915_L1910H] YES

Is reported phosphorylation enrichment greater than or equal to 0.5 here: FPQARYHWLVL [APTX_Y214_K211Q_YF] YES

Is reported phosphorylation enrichment greater than or equal to 0.5 here: GLAKEYIDPET [CSNK1G2_Y195] NO

Is reported phosphorylation enrichment greater than or equal to 0.5 here: RSPLRYTSILT [OR51B6_Y130] NO

Is reported phosphorylation enrichment greater than or equal to 0.5 here: VERIGYDFIPT [CBS_Y308_G305R] YES

Is reported phosphorylation enrichment greater than or equal to 0.5 here: ATGMEYLASQK [FGFR2_Y616_R612T] NO

Is reported phosphorylation enrichment greater than or equal to 0.5 here: HIKHNYECLVY [XRCC5_Y416] YES

Is reported phosphorylation enrichment greater than or equal to 0.5 here: TGDFGYRTPGY [TNS2_Y668_A670T] NO

Is reported phosphorylation enrichment greater than or equal to 0.5 here: QRPYVYYYSYL [PTEN_Y176_R173P] YES

Is reported phosphorylation enrichment greater than or equal to 0.5 here: VTVLDYEKIGK [SYT1_Y365_D366E] NO

Is reported phosphorylation enrichment greater than or equal to 0.5 here: MHDKEYFSVHN [MET_Y1234_Y1230H_YF] NO

Is reported phosphorylation enrichment greater than or equal to 0.5 here: PNAFIYVVQLP [L1CAM_Y420_A415P_YF] YES

Is reported phosphorylation enrichment greater than or equal to 0.5 here: GRTNIYKNKKD [SLC26A3_Y520] NO

Is reported phosphorylation enrichment greater than or equal to 0.5 here: NLRQQYNSPQE [UMPS_Y432_G429R] NO
